# credit: ChEMBL document CHEMBL2163284

tested on: Staphylococcus aureus; assay: Antimicrobial activity against Staphylococcus aureus ATCC 25923 by serial dilution method; assay type: functional
Non-standard residues stand in square brackets, D forms with d. Residues, ends and D or L forms follow the SMILES beside them. *: point of attachment. Bip = N[C@@H](Cc1ccc(-c2ccccc2)cc1)C(=O)O; Phe(4-NH2) = Nc1ccc(C[C@H](N)C(=O)O)cc1; Agp = N=C(N)NC[C@H](N)C(=O)O; Orn = NCCC[C@H](N)C(=O)O; NHBn = c1ccc(CN*)cc1
attribute_measured: MIC (µg/mL)
Give the number; µg/mL is assumed, so skip it.

Example entries begin here.
Incoming: For NCCCC[C@H](NC(=O)[C@H](Cc1ccc(-c2ccccc2)cc1)NC(=O)[C@@H](N)CCCCN)C(=O)NCc1ccccc1 (H-Lys-[Bip]-Lys-NHBn) , what is its reported MIC?
Outgoing: 25

Incoming: For N=C(N)NCCC[C@H](NC(=O)[C@H](Cc1ccc(-c2ccccc2)cc1)NC(=O)[C@@H](N)CNC(=N)N)C(=O)NCc1ccccc1 (H-[Agp]-[Bip]-Arg-NHBn) , what is its reported MIC?
Outgoing: 10

Incoming: For N=C(N)NCCC[C@H](N)C(=O)N[C@@H](Cc1ccc(N)cc1)C(=O)N[C@@H](Cc1ccc(-c2ccccc2)cc1)C(=O)NCc1ccccc1 (H-Arg-[Phe(4-NH2)]-[Bip]-NHBn) , what is its reported MIC?
Outgoing: 15

---
Incoming: For N=C(N)NCCC[C@H](N)C(=O)N[C@@H](Cc1ccc(-c2ccccc2)cc1)C(=O)N[C@@H](CCCCN)C(=O)NCc1ccccc1 (H-Arg-[Bip]-Lys-NHBn) , what is its reported MIC?
Outgoing: 10

Incoming: For N=C(N)NCCC[C@H](NC(=O)[C@H](Cc1ccc(-c2ccccc2)cc1)NC(=O)[C@@H](N)CCCN)C(=O)NCc1ccccc1 (H-[Orn]-[Bip]-Arg-NHBn) , what is its reported MIC?
Outgoing: 15

Incoming: For N=C(N)NCCC[C@H](N)C(=O)N[C@@H](Cc1ccc(-c2ccccc2)cc1)C(=O)N[C@@H](Cc1ccc(NC(=N)N)cc1)C(=O)NCc1ccccc1 , what is its reported MIC?
Outgoing: 5

Incoming: For N=C(N)NCCC[C@H](NC(=O)[C@H](Cc1ccc(-c2ccccc2)cc1)NC(=O)[C@@H](N)CCCNC(=N)N)C(=O)NCc1ccccc1 (H-Arg-[Bip]-Arg-NHBn) , what is its reported MIC?
Outgoing: 10
